method.notes: probe aLefty1 binding on compound microarray – biochemical, small-molecule microarray, 635/667 nm fluorescence, primary screen (AID 1153);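 note: score merges spot fluorescence with signal-to-noise ratio from the scanned slide images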
condition: higher = more signal
Quick reference: composite z-score of the listed items.
measured.property: composite z-score

[[record]]
compound = "CCCCCCc1nc(Cc2cc(OC)c(OC)c(OC)c2)cc2c1[Si](C(C)C)(C(C)C)OC2"
test_result = -0.131

[[record]]
compound = "CCCCCCCCCC(O)C1C=CC2C(=O)N(c3ccccc3)C(=O)C2N1Nc1cc(OC)c(OC)c(OC)c1 (centres undefined)"
test_result = 0.448

[[record]]
compound = "C#Cc1cc2ccccc2oc1=O"
test_result = 0.228

[[record]]
compound = "COc1ccc([Si](C)(C)[C@@H]2[C@@H](CCO)O[C@]3(C(=O)N(Cc4ccccc4)c4ccc(N5CCOC5=O)cc43)[C@H]2C)cc1"
test_result = 0.042

[[record]]
compound = "CC(C)[Si](C#C[Si](C(C)C)(C(C)C)C(C)C)(O[C@H](c1ccccc1)c1cn(Cc2ccccc2)nn1)C(C)C"
test_result = 0.0997

[[record]]
compound = "O=C1C2C=CC(C(O)c3ccco3)N(Nc3ccccc3F)C2C(=O)N1c1ccccc1 (centres undefined)"
test_result = 0.361

[[record]]
compound = "C=CCC(OC(C)=O)[C@@H]1[C@@H](N(Cc2ccc(-c3cccc(C(F)(F)F)c3)o2)C(=O)Cc2ccc(OC)cc2)c2cc(OCCCO)ccc2N1C(=O)c1ccc(-c2ccccc2)cc1 (some centres undefined)"
test_result = 0.235

[[record]]
compound = "CC(C)C(O)C1C=CC2C(=O)N(c3ccccc3)C(=O)C2N1Nc1ccccc1 (centres undefined)"
test_result = -0.0163

[[record]]
compound = "C=C[C@H]1C(C(=O)OCC)=CC[C@@H](c2ccccc2)N1S(=O)(=O)c1ccc(C)cc1"
test_result = 0.457

[[record]]
compound = "NCCCCCCNC(=O)[C@@H]1C[C@@H]2C(=O)N[C@@H](CCCCN)C(=O)N2[C@@H]1c1ccc(O)cc1"
test_result = 0.614

[[record]]
compound = "CCCCC(CC)C(O)C1C=CC2C(=O)N(c3ccccc3)C(=O)C2N1Nc1ccccc1F (centres undefined)"
test_result = -0.0576

[[record]]
compound = "CCCN1C(=O)[C@]2(Cc3ccccc31)N=C(c1ccc(OCCCO)cc1)O[C@@H]2c1ccccc1"
test_result = 0.643

[[record]]
compound = "COc1ccc(CCNC(=O)[C@@]2(Cc3ccccc3I)c3ccccc3C(=O)N(C3CCCCC3)[C@H]2c2ccc(CO)cc2)cc1"
test_result = -0.104

[[record]]
compound = "CCCCCC1=C2CNC(C)(C(=O)OC)C=C2C(C)C1=O (centres undefined)"
test_result = -0.0236

[[record]]
compound = "CO[C@H]1O[C@H](CO)[C@@H](OC(=O)CCc2ccccc2)[C@@H]2OC(=O)[C@@H](Cc3ccccc3)C/C=C/C[C@H](Cc3ccccc3)C(=O)O[C@@H]12"
test_result = -0.0054

[[record]]
compound = "CC1CC/C=C\\[C@H]2OC34C=CCN(C(C)C)C(=O)[C@H]3N(CCO)C(=O)[C@@H]4C2C(=O)O1 (some centres undefined)"
test_result = -0.101

[[record]]
compound = "COc1cc(OC)c(C(O)C2C=CC3C(=O)N(Cc4ccccc4)C(=O)C3N2n2cnnc2)cc1Br (centres undefined)"
test_result = 0.0509

[[record]]
compound = "COc1ccc(C#Cc2ccc3c(c2)[C@]2(C(=O)N3)[C@H](C(=O)O)[C@H]3C(=O)O[C@H](c4ccccc4)[C@H](c4ccccc4)N3[C@@H]2c2ccc(O)cc2)cc1"
test_result = 0.174

[[record]]
compound = "COC(=O)C1(CC(C)C)C=C2C(=C(c3ccccc3)C(=O)C2C)CN1 (centres undefined)"
test_result = 1.58

[[record]]
compound = "[N-]=[N+]=NCc1ccccc1[C@H]1OC(c2ccc(OCCCO)cc2)=N[C@@]1(Cc1ccccc1N=[N+]=[N-])C(=O)NCC(O)CO (some centres undefined)"
test_result = 0.54

[[record]]
compound = "COCCOC(=O)N1C(=O)[C@@]2(c3ccccc31)[C@H](C(=O)NC[C@H](O)c1ccccc1)[C@H]1C(=O)O[C@H](c3ccccc3)[C@H](c3ccccc3)N1[C@@H]2c1ccc(O)cc1"
test_result = -0.671

[[record]]
compound = "[N-]=[N+]=Nc1ccccc1C[C@@]1(C(=O)NCCN2CCOCC2)N=C(c2ccc(OCCCO)cc2)O[C@@H]1c1ccccc1N=[N+]=[N-]"
test_result = 0.632

[[record]]
compound = "C=CCNC(=O)[C@@H]1[C@H]2C(=O)O[C@H](c3ccccc3)[C@H](c3ccccc3)N2[C@H](c2ccccc2OCCO)[C@@]12C(=O)Nc1ccc(C#CCC(C(=O)OC)C(=O)OC)cc12"
test_result = 0.666

[[record]]
compound = "CN(C)C(=O)[C@]1(Cc2ccccc2CN=[N+]=[N-])N=C(c2ccc(OCCCO)cc2)O[C@@H]1c1ccccc1"
test_result = 0.457

[[record]]
compound = "CCOC(=O)C[C@H]1[C@H](OC(=O)c2ccccc2-c2ccccc2)[C@@H](NC(=O)c2ccc3ccccc3n2)c2cc(OCCCO)ccc2N1C(=O)Cc1ccc(OC)cc1"
test_result = 0.0986

[[record]]
compound = "COc1ccc([Si](C)(C)[C@H]2[C@H](CC(=O)N(CCO)Cc3ccccc3)O[C@@]3(C(=O)N(C)c4c(Br)cc(C)cc43)[C@@H]2C)cc1"
test_result = 0.0774

[[record]]
compound = "COCCOC(=O)N1C(=O)[C@@]2(c3cc(C#CC4(O)CCCCCC4)ccc31)[C@H](C(=O)Nc1nc3ccccc3s1)[C@H]1C(=O)O[C@H](c3ccccc3)[C@H](c3ccccc3)N1[C@@H]2c1ccc(O)cc1"
test_result = 0.219

[[record]]
compound = "CC(c1ccccc1)C(O)C1C=CC2C(=O)N(C)C(=O)C2N1Nc1ccccc1 (centres undefined)"
test_result = 0.146

[[record]]
compound = "COc1ccc([Si](C)(C)[C@@H]2[C@@H](CCO)O[C@]3(C(=O)N(Cc4cccc(NC(=O)[C@H](C)O)c4)c4ccccc43)[C@H]2C)cc1"
test_result = 0.286


----------
method.notes: binders of probe aHhip on microarray, primary screen, stem cell growth factor project, biochemical, small-molecule microarray, fluorescence 635/667 (AID 1087);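 note: score merges spot fluorescence at 667nm with spot signal to noise ratio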
condition: higher = more signal
Note to self: class labels come from recorded composite z-score, ranges listed here: label 0: < -0.1; label 1: ≥ -0.1 and < 0.02; label 2: ≥ 0.02

[[record]]
compound = "COCCOC(=O)N1C(=O)[C@@]2(c3ccccc31)[C@H](c1ccc(O)cc1)N1[C@H](c3ccccc3)[C@H](c3ccccc3)OC(=O)[C@H]1[C@@H]2C(=O)N1CCN(c2ncccn2)CC1"
discrete_label = "label 1"

[[record]]
compound = "CCCCC(=C=CC[C@H](O)c1ccc(OCCO)cc1)CCO"
discrete_label = "label 1"

[[record]]
compound = "C=CC[C@]1(C(=O)N2CCOCC2)COC(c2ccc(OCCCO)cc2)=N1"
discrete_label = "label 0"

[[record]]
compound = "COC(=O)[C@@]1(Cc2ccc(OC)cc2)[C@H]2c3cc(C(=O)N(C)C)n(Cc4ccc(OC(F)(F)F)cc4)c3C[C@H]2CN1C(=O)c1ccccc1"
discrete_label = "label 2"

[[record]]
compound = "C=CCN1C(=O)[C@]2(CCS(=O)(=O)c3ccccc3)N=C(c3ccc(OCCCO)cc3)O[C@@H]2c2ccccc21"
discrete_label = "label 0"

[[record]]
compound = "O=C(Cc1ccccc1)[C@H]1C2C=CCCC(c3ccccc3)=C2CN1Cc1ccccc1 (stereo partly drawn)"
discrete_label = "label 2"

[[record]]
compound = "COC(=O)[C@@]1(Cc2ccc(OC)cc2)[C@H]2c3cc(C(=O)N4CCCC4)n(CCO)c3C[C@H]2CN1C(=O)c1ccccc1"
discrete_label = "label 2"

[[record]]
compound = "NC(=O)[C@H]1[C@@H]2C(=O)O[C@@H](c3ccccc3)[C@@H](c3ccccc3)N2[C@@H](c2ccc(OCCO)cc2)[C@]12C(=O)Nc1ccc(C#CCCO)cc12"
discrete_label = "label 0"

[[record]]
compound = "COCCCNC(=O)[C@@]1(Sc2ccc(C)cc2)CC(=O)N(C2Cc3ccccc3C2)[C@@H]1c1ccc(CO)cc1"
discrete_label = "label 0"

[[record]]
compound = "COC(=O)[C@]1(CCS(=O)(=O)c2ccccc2)N=C(c2ccc(OCCCO)cc2)O[C@@H]1c1ccccc1N=[N+]=[N-]"
discrete_label = "label 1"

[[record]]
compound = "O=C1N(CCS(=O)(=O)c2ccccc2)c2ccccc2[C@H]2OC(c3ccc(OCCCO)cc3)=N[C@@]12Cc1ccccc1"
discrete_label = "label 1"

[[record]]
compound = "O=C1OCCC/C=C\\[C@H]2OC34C=CCN(c5ccc6ccccc6c5)C(=O)[C@H]3N(CCO)C(=O)[C@@H]4C12 (stereo partly drawn)"
discrete_label = "label 0"

[[record]]
compound = "CCCNC(=O)[C@@]1(Sc2ccc(C)cc2)CC(=O)N(C2Cc3ccccc3C2)[C@@H]1c1ccc(CO)cc1I"
discrete_label = "label 2"

[[record]]
compound = "O=C1C2C=CC(C(O)C3CC=CCC3)N(Nc3ccccc3)C2C(=O)N1c1ccccc1 (stereo not drawn)"
discrete_label = "label 0"

[[record]]
compound = "[N-]=[N+]=Nc1ccccc1C[C@@]1(C(N)=O)N=C(c2ccc(OCCCO)cc2)O[C@@H]1c1ccccc1N=[N+]=[N-]"
discrete_label = "label 2"

[[record]]
compound = "CCCCN1CC=CC23O[C@@H]4/C=C\\CCC(C)OC(=O)C4[C@H]2C(=O)N(CCCO)[C@@H]3C1=O (stereo partly drawn)"
discrete_label = "label 0"

[[record]]
compound = "COC(=O)[C@@]1(Cc2ccccc2)[C@H]2c3cc(C(=O)N(C)C)n(Cc4ccc(C)o4)c3C[C@H]2CN1C(=O)c1ccccc1"
discrete_label = "label 2"

[[record]]
compound = "O=C(c1ccccc1)N1C(=O)[C@]2(Cc3ccccc31)N=C(c1ccc(OCCCO)cc1)O[C@@H]2c1ccccc1"
discrete_label = "label 2"

[[record]]
compound = "C=CCNC(=O)[C@@H]1[C@H]2C(=O)O[C@H](c3ccccc3)[C@H](c3ccccc3)N2[C@H](c2ccccc2OCCO)[C@@]12C(=O)Nc1ccc(C#CCCO)cc12"
discrete_label = "label 2"

[[record]]
compound = "O=C1O[C@@H](c2ccccc2)[C@@H](c2ccccc2)N2[C@@H](c3ccc(OCCO)cc3)[C@]3(C(=O)Nc4ccc(C#CC5=CCCCC5)cc43)[C@@H](C(=O)NC[C@H](O)c3ccccc3)[C@H]12"
discrete_label = "label 0"

[[record]]
compound = "CO[C@H]1O[C@H](CO)[C@@H](OC(=O)Nc2ccc3c(c2)OCO3)[C@H](OC(=O)Nc2ccc3c(c2)OCO3)[C@@H]1OC(=O)Nc1ccc2c(c1)OCO2"
discrete_label = "label 2"

[[record]]
compound = "CC(C)NC(=O)[C@@]1(c2ccc([N+](=O)[O-])cc2)CC(=O)N(C2CCCCC2)[C@@H]1c1ccc(CO)cc1"
discrete_label = "label 0"

